Provide the recorded IC50 for the entries that follow.
target: bacterial NAD synthetase enzyme (Bacillus subtilis); assay: biochemical; format: biochemical
Sequence (P08164 2-272 limits assumed): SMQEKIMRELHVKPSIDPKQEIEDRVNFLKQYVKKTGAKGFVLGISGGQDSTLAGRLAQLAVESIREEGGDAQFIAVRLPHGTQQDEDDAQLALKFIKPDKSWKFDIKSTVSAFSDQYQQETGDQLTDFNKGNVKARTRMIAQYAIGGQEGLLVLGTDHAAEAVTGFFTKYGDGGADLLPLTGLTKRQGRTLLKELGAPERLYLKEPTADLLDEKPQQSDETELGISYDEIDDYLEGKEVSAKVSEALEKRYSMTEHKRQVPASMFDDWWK
Numbers only, in µM.

These solved cases illustrate the format of a correct answer.
molecule="CN(C)c1ccc(CC(=O)OCCCCCCCCOc2ccccc2C(N)=O)cc1 [Compound 1031]" quantity_name=IC50 endpoint_unit=µM readout_value=36.3
molecule="C[n+]1cccc(C(=O)OCCCCCCCc2cc3cc(Oc4ccccc4)ccc3[nH]2)c1 [Compound 917]" quantity_name=IC50 endpoint_unit=µM readout_value=60
molecule="C[n+]1cccc(C(=O)OCCCCCCCCCn2ccc3ccccc32)c1 [Compound 970]" quantity_name=IC50 endpoint_unit=µM readout_value=55
molecule="C[N+](C)(C)c1ccc(CC(=O)OCCCCCCCCOc2ccc(OC(=O)c3ccccc3)cc2)cc1 [Compound 1082]" quantity_name=IC50 endpoint_unit=µM readout_value=50
molecule="C[N+](C)(C)c1cccc(C(=O)OCCCCCCCc2cc3cc(Oc4ccccc4)ccc3[nH]2)c1 [Compound 872]" quantity_name=IC50 endpoint_unit=µM readout_value=50

Could you tell me IC50 for each of these molecules? They are listed below.
1. CC(C)c1ccc2[nH]c(CCCCCCCCOC(=O)c3cccc([N+](C)(C)C)c3)cc2c1 [Compound 876]
2. COC(=O)c1cc2ccccc2n1CCCCCCCCCOC(=O)c1ccc[n+](C)c1 [Compound 974]
3. COC(=O)c1cc2cc(OCc3ccccc3)ccc2n1CCCCCCCCOC(=O)c1ccc[n+](C)c1 [Compound 977]

1: 75; 2: 35; 3: 10
